- TARGET OF ASSAY: recombinant human MER (Homo sapiens)
- Sequence (Q12866 21-999): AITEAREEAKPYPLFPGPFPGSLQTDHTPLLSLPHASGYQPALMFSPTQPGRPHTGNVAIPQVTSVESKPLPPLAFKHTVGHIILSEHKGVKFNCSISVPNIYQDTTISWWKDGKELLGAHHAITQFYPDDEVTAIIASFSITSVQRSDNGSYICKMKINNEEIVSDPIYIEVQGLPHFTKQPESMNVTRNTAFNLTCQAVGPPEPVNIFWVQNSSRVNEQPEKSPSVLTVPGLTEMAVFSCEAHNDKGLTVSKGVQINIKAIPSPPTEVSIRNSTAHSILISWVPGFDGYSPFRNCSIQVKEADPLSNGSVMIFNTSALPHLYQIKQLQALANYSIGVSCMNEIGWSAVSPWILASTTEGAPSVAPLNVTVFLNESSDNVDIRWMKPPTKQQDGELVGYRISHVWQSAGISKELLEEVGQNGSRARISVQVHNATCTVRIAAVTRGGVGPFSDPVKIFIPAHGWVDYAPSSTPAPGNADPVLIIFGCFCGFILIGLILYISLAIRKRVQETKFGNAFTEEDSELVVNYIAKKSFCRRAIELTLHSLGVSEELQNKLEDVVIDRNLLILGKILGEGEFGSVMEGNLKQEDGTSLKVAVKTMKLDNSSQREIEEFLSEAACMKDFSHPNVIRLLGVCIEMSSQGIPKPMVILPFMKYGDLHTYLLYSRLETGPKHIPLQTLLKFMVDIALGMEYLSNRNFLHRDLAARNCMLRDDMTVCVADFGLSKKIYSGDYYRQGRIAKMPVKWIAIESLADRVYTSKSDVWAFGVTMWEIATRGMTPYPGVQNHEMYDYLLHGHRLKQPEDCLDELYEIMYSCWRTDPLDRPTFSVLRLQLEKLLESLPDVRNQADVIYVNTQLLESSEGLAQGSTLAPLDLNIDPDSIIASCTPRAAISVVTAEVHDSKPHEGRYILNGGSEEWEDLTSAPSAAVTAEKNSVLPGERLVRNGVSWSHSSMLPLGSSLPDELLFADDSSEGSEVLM
- TEST PROTOCOL: Biochemical potency, HTRF KinEASE-TK kinase assay
- SETTINGS: 1 nM MER, 700 μM ATP
pIC50: −log10 of the molar value.
MEASURED QUANTITY: pIC50

Query: Entry under review: "CN(C)C(=O)c1cccc(-c2ccc(-c3n[nH]c4ncc(-c5ccc6c(c5)CC[C@@H](N5C7COCC5C7)CC6)cc34)cc2)n1" . Reported pIC50?
Reply: < 6.00

Query: Entry under review: "COc1cc(-c2c[nH]c3ncc(-c4ccc5c(c4)CC[C@@H](N4C6COCC4C6)CC5)cc23)ccc1-c1ccccn1" . Reported pIC50?
Reply: 6.00 to 7.00

Query: Entry under review: "COc1cc(-c2n[nH]c3ncc(-c4ccc5c(c4)CC[C@@H](N4C6COCC4C6)CC5)cc23)ccc1-c1ccccn1" . Reported pIC50?
Reply: 6.00 to 7.00

Query: Entry under review: "CN(C)C(=O)c1cccnc1-c1ccc(-c2c[nH]c3ncc(-c4ccc5c(c4)CC[C@@H](N4C6COCC4C6)CC5)cc23)cc1" . Reported pIC50?
Reply: 6.00 to 7.00

Query: Entry under review: "Cc1ccc(-c2ccc(-c3n[nH]c4ncc(-c5ccc6c(c5)CC[C@@H](N5C7COCC5C7)CC6)cc34)cc2)nc1" . Reported pIC50?
Reply: 6.00 to 7.00

Query: Entry under review: "Cc1cccnc1-c1ccc(-c2c[nH]c3ncc(-c4ccc5c(c4)CC[C@@H](N4CCCC4)CC5)cc23)cc1" . Reported pIC50?
Reply: > 7.00
